Data origin, for the record: the supplement of paper PMC11061612

System: TT2609-C02 (Thyroid Gland Carcinoma)
Assay: combination Emax (second highest fraction inhibited in the dose matrix, 72 h); higher = more inhibition; extreme values may be limits of the assay
Can you tell me combination Emax for the items I'm about to list?
One number for each entry.

// known answers, use as guide
{"Molecule": "CC1(C)CCC(CN2CCN(c3ccc(C(=O)NS(=O)(=O)c4ccc(NCC5CCOCC5)c([N+](=O)[O-])c4)c(Oc4cnc5[nH]ccc5c4)c3)CC2)=C(c2ccc(Cl)cc2)C1 [Venetoclax] + C[C@@H](Nc1cc(F)cc(F)c1)c1cc(C(=O)N(C)C)cc2c(=O)cc(N3CCOCC3)oc12 [AZD8186] (first compound max 1 µM, 7x7, partner max 3 µM)", "Target Of Assay": "TT2609-C02 (Thyroid Gland Carcinoma)", "combination Emax": 0.162}
{"Molecule": "CC1(C)CCC(CN2CCN(c3ccc(C(=O)NS(=O)(=O)c4ccc(NCC5CCOCC5)c([N+](=O)[O-])c4)c(Oc4cnc5[nH]ccc5c4)c3)CC2)=C(c2ccc(Cl)cc2)C1 [Venetoclax] + COc1cc(Nc2ncc3c(n2)-c2ccc(Cl)cc2C(c2c(F)cccc2OC)=NC3)ccc1C(=O)O [Alisertib] (first compound max 1 µM, 7x7, partner max 10 µM)", "Target Of Assay": "TT2609-C02 (Thyroid Gland Carcinoma)", "combination Emax": 0.426}

Entry under review: NC1(C(=O)N[C@@H](CCO)c2ccc(Cl)cc2)CCN(c2ncnc3[nH]ccc23)CC1 [Capivasertib] + CCN(CCO)CCCOc1ccc2c(Nc3cc(CC(=O)Nc4cccc(F)c4)[nH]n3)ncnc2c1 [AZD2811] (first compound max 10 µM, 7x7, partner max 1 µM) . Reported combination Emax?
0.542

====

Test system: PANC-10-05 (Pancreatic Carcinoma);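 further: after 72 h of two-drug dosing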
Assay: Bliss excess, mean over the matrix (fraction); higher = more synergy
Can you tell me Bliss excess for the items I'm about to list?
Numbers only.

// known answers, use as guide
{"Compound": "C[C@@H](Oc1cc(-c2cnn(C3CCNCC3)c2)cnc1N)c1c(Cl)ccc(F)c1Cl [Crizotinib] + CC1=C(C(=CC=C1)Cl)NC(=O)C2=CN=C(S2)NC3=CC(=NC(=N3)C)N4CCN(CC4)CCO [Dasatinib] (first compound max 10 µM, 7x7, partner max 2 µM)", "Bliss excess": 0.0003}
{"Compound": "Cc1c2c(nn1C)CSCc1cc(n(C)n1)CSc1cc(c3ccccc3c1)OCCCc1c(C(=O)O)n(C)c3c-2c(Cl)ccc13 [AZD5991] + C[C@@H](Nc1cc(F)cc(F)c1)c1cc(C(=O)N(C)C)cc2c(=O)cc(N3CCOCC3)oc12 [AZD8186] (first compound max 1 µM, 7x7, partner max 3 µM)", "Bliss excess": -0.0473}
{"Compound": "Cc1c2c(nn1C)CSCc1cc(n(C)n1)CSc1cc(c3ccccc3c1)OCCCc1c(C(=O)O)n(C)c3c-2c(Cl)ccc13 [AZD5991] + CS(=O)(=O)CCNCc1ccc(-c2ccc3ncnc(Nc4ccc(OCc5cccc(F)c5)c(Cl)c4)c3c2)o1 [Lapatinib] (first compound max 1 µM, 7x7, partner max 10 µM)", "Bliss excess": -0.0585}

Continue with the compound presented below.
Entry under review: CS(=O)(=O)CCNCc1ccc(-c2ccc3ncnc(Nc4ccc(OCc5cccc(F)c5)c(Cl)c4)c3c2)o1 [Lapatinib] + NC1(c2ccc(-c3nc4ccn5c(=O)[nH]nc5c4cc3-c3ccccc3)cc2)CCC1 [MK-2206] (first compound max 10 µM, 7x7, partner max 10 µM) . Reported Bliss excess?
-0.0218
